- test-details: Solubility of Utidelone in water and organic solvents
- Assay type: physicochemical
- assay-setup: water; read-out: saturated solubility in water
assay-readout: solubility

# compound C/C1=C/CC(/C(C)=C/c2csc(C)n2)OC(=O)C[C@H](O)C(C)(C)C(=O)[C@H](C)[C@@H](O)[C@@H](C)CCC1 (stereo partly shown) [Utidelone] ; its solubility = < 1 µg/mL
